Reference for the values: patent US20250313575A1

Recorded LRRK2 pIC50, one value per entry.
# subject.of.test: GST-tagged truncated human mutant G2019S LRRK2 (Homo sapiens (Human), UniProt Q5S007, G2019S)
# Sequence (Q5S007 970-2527 G2019S): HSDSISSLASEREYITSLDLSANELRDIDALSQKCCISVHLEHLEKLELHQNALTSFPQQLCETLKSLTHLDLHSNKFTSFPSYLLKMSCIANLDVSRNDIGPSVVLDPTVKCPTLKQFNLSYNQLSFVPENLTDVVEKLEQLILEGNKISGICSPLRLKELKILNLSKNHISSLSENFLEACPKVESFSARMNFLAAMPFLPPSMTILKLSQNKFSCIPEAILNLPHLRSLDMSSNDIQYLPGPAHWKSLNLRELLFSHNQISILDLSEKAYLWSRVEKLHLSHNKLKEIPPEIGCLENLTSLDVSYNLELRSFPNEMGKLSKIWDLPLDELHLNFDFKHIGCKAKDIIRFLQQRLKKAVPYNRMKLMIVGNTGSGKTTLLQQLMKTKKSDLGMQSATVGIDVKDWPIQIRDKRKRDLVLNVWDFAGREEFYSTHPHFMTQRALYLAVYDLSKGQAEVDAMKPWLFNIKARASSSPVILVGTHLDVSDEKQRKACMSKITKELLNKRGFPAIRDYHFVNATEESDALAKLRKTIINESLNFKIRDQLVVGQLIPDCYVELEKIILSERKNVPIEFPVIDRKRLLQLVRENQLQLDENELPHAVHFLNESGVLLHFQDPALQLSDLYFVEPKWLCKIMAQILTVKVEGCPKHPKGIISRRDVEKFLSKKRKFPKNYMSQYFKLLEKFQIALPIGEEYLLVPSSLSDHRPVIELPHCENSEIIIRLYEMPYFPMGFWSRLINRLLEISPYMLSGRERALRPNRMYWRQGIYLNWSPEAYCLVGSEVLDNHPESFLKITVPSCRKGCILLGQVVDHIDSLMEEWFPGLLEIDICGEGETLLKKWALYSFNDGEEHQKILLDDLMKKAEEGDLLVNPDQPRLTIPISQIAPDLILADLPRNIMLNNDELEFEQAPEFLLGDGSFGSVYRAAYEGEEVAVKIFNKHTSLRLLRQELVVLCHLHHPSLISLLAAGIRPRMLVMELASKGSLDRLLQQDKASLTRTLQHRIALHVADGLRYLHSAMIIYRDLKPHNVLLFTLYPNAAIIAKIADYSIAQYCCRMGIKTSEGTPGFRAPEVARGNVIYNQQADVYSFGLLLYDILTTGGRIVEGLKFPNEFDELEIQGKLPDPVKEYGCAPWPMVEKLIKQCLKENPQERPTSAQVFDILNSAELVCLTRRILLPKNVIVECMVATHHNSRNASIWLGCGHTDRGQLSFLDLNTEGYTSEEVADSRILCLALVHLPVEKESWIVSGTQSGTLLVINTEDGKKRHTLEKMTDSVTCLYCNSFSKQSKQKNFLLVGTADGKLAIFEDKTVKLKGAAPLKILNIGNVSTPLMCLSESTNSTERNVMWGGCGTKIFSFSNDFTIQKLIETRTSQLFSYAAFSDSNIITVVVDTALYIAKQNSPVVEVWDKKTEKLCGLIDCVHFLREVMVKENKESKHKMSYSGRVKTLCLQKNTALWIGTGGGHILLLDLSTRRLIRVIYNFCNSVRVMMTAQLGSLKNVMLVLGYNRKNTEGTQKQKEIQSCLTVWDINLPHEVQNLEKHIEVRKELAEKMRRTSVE
# experimental.protocol: LRRK2 G2019S Km ATP LanthaScreen assay
# Type: biochemical
# condition.info: G2019S LRRK2, 134 μM ATP (Km ATP), LRRKtide substrate
Simply state the number, no unit and no words.

- CC(C)n1nc(C2C[C@@H]2C#N)c2c1Nc1ncc(C(F)(F)F)c(n1)N[C@@H]1COC[C@H]1CO2 (single isomer, unassigned) [Ex-2.45]: 8.32

Please look up its LRRK2 pIC50: Cc1nn(C2CCC2)c2c1OC[C@H]1COC[C@@H]1Nc1nc(ncc1C(F)(F)F)N2 (single isomer, unassigned)
6.77

###

# subject.of.test: GST-tagged truncated human mutant G2019S LRRK2 (Homo sapiens (Human), UniProt Q5S007, G2019S)
# experimental.protocol: LRRK2 G2019S Km ATP LanthaScreen assay
# Format: biochemical
# condition.info: G2019S LRRK2, 134 μM ATP (Km ATP), LRRKtide substrate
reported.endpoint: LRRK2 pIC50
Respond with the number and no other words.

# count of solved cases: 3
- Cc1nn(C2CCC2)c2c1OC[C@@H]1CC[C@H]1Nc1nc(ncc1C(F)(F)F)N2 [Ex-2.3]: 9.12
- Cc1nn(C(C)C)c2c1OCCC(C)Nc1nc(ncc1C(F)(F)F)N2 (single isomer, unassigned) [Ex-2.8]: 9.48
- Cc1nn(C2CC2)c2c1OC[C@@H]1COC[C@H]1Nc1nc(ncc1C(F)(F)F)N2: 9.46

Query: LRRK2 pIC50; subject: Cc1nn(C)c2c1CCC[C@@H](C)Nc1nc(ncc1C(F)(F)F)N2 (single isomer, unassigned)
8.49

Using the record for Cc1nn(C2CC2)c2c1O[C@@H]1CC[C@@H]1CNc1nc(ncc1C(F)(F)F)N2 [Ex-2.85] , report its LRRK2 pIC50.
8.74

Look up LRRK2 pIC50 for this compound: Cc1nn(C2CCC2)c2c1OC[C@@H]1CC[C@H]1Nc1nc(ncc1C(F)(F)F)N2 [Ex-2.4]
6.66

Consider the compound Cc1c2c(nn1C1CC1)Nc1ncc(C(F)(F)F)c(n1)N[C@@H](C)CCO2 (single isomer, unassigned) and give its measured LRRK2 pIC50.
6.63

###

# subject.of.test: GST-tagged truncated human mutant G2019S LRRK2 (Homo sapiens (Human), UniProt Q5S007, G2019S)
# experimental.protocol: LRRK2 G2019S Km ATP LanthaScreen assay
# Assay type: biochemical
# condition.info: G2019S LRRK2, 134 μM ATP (Km ATP), LRRKtide substrate
# note: boundary value 6 maps to false (0); LRRK2 pIC50 below it maps to true (1)

Sample answers from the record:
• COC(=O)C(C)(C)n1nc(C)c2c1OCC[C@@H](C)Nc1nc(ncc1C(F)(F)F)N2 = false (0)
• Cn1nc(C(F)(F)F)c2c1Nc1ncc(Cl)c(n1)N[C@@H]1COC[C@H]1CO2 = false (0)
• Cc1nn(C2CCC2)c2c1OC[C@@H]1COC[C@H]1Nc1cc(ncc1F)N2 = true (1)
• Cc1nn(C2CCOC2)c2c1OC[C@@H]1CC[C@H]1Nc1nc(ncc1C(F)(F)F)N2 (some centres unmarked) = false (0)
• Cc1nn(C2CCC2)c2c1OC[C@@H]1COC[C@H]1Nc1nc(ncc1C(F)(F)F)N2 (single isomer, unassigned) [Ex-2.27] = false (0)
• O[C@@H]1CC[C@H]1n1nc(C2CC2)c2c1OC[C@@H]1COC[C@H]1Nc1nc(ncc1C(F)(F)F)N2 (single isomer, unassigned) = false (0)

Attention now turns to another entry.
Dear reviewer, please state whether Cc1nn(C2CCC2)c2c1OC[C@@H]1CC[C@H]1Nc1cc(ncc1F)N2 [Ex-13.7] has LRRK2 pIC50 strictly beneath 6.
true (1)

###

# subject.of.test: GST-tagged truncated human mutant G2019S LRRK2 (Homo sapiens (Human), UniProt Q5S007, G2019S)
# experimental.protocol: LRRK2 G2019S Km ATP LanthaScreen assay
# Type: biochemical
# condition.info: G2019S LRRK2, 134 μM ATP (Km ATP), LRRKtide substrate
Criterion: LRRK2 pIC50 meeting or surpassing 8. Met: label 1. Not met: label 0.

Item Cn1nc(C(F)(F)F)c2c1Nc1cc(c(Cl)cn1)N[C@@H]1COC[C@H]1CO2 with LRRK2 pIC50 of 8 or above?
label 1

Given Cc1nn(C2CCC2)c2c1OC1COC[C@H]1CNc1nc(ncc1C(F)(F)F)N2 (single isomer, unassigned) [Ex-2.82] , state whether its LRRK2 pIC50 is at least 8.
label 1

Tell me whether LRRK2 pIC50 is at least 8 here: Cc1nn(C2CCC2)c2c1OCCC(C)Nc1nc(ncc1C(F)(F)F)N2 (single isomer, unassigned) [Ex-2.7]
label 0

Please tell me: is the compound Cc1nn(C)c2c1OCC1(CC1)C(C)Nc1nc(ncc1C(F)(F)F)N2 (single isomer, unassigned) [Ex-2.14] at or over 8 in terms of LRRK2 pIC50?
label 0

Check if LRRK2 pIC50 >= 8 (inclusive). Item: CC(C)c1nn(C(C)(C)C#N)c2c1Nc1ncc(C3CC3)c(n1)N[C@@H]1COC[C@H]1CO2
label 1

###

# subject.of.test: GST-tagged truncated human mutant G2019S LRRK2 (Homo sapiens (Human), UniProt Q5S007, G2019S)
# experimental.protocol: LRRK2 G2019S Km ATP LanthaScreen assay
# Type: biochemical
# condition.info: G2019S LRRK2, 134 μM ATP (Km ATP), LRRKtide substrate
Under this convention, yes (1) denotes LRRK2 pIC50 strictly below 9 and no (0) denotes LRRK2 pIC50 at or above 9.

Examples with answers:
* CCOC(=O)[C@@H]1C[C@@H]1c1nn(C(C)C)c2c1OC[C@@H]1COC[C@H]1Nc1nc(ncc1C(F)(F)F)N2 [Ex-2.47] | no (0)
* Cc1nn(C)c2c1OCC1CC[C@H]1Nc1nc(ncc1C(F)(F)F)N2 (some centres unmarked) [Ex-2.12] | yes (1)
* Cc1nn(C2CCC2)c2c1OC[C@@H]1COC[C@H]1Nc1nc(ncc1Cl)N2 [Ex-2.49] | no (0)

Please look at the following compound next.
For this compound, is LRRK2 pIC50 lower than 9? Cc1nn(C2CCC2)c2c1OC1COC[C@H]1CNc1nc(ncc1C(F)(F)F)N2 (some centres unmarked) [Ex-2.80]
yes (1)

###

# subject.of.test: GST-tagged truncated human mutant G2019S LRRK2 (Homo sapiens (Human), UniProt Q5S007, G2019S)
# experimental.protocol: LRRK2 G2019S Km ATP LanthaScreen assay
# Assay type: biochemical
# condition.info: G2019S LRRK2, 134 μM ATP (Km ATP), LRRKtide substrate
LRRK2 pIC50 below 9 gives criterion not met; LRRK2 pIC50 at or above it gives criterion met.

Some entries whose results are on file:
• Cc1nn(C2CCC2)c2c1OC[C@@H]1COC[C@H]1Nc1nc(ncc1C(F)(F)F)N2 [Ex-5.1] = criterion met
• Cc1nn(C)c2c1OCC1(CC1)C(C)Nc1nc(ncc1C(F)(F)F)N2 (single isomer, unassigned) [Ex-2.15] = criterion not met
• Cn1cc(C2CC2c2nn(C3CCC3)c3c2OC[C@@H]2COC[C@H]2Nc2nc(ncc2C(F)(F)F)N3)cn1 (some centres unmarked) [Ex-2.70] = criterion met
• FC(F)(F)c1cnc2nc1NC1CCC1COc1c(C3CCOC3)nn(C3CCC3)c1N2 (centres unmarked) [Ex-2.65] = criterion not met
• Cc1nn(C2CCC2)c2c1OC[C@@H]1CC[C@H]1Nc1cc(ncc1F)N2 [Ex-13.6] = criterion not met

Check if LRRK2 pIC50 >= 9 (inclusive). Item: COc1cccc2c1Nc1ncc(Cl)c(n1)N[C@@H]1COC[C@H]1CO2
criterion met

I'd appreciate it if you could say whether Cc1nn(C(C)C)c2c1OC[C@@H]1COC[C@H]1Nc1nc(ncc1Cl)N2 has LRRK2 pIC50 at least equal to 9.
criterion not met

LRRK2 pIC50 >= 9 for COC1CCC1n1nc(C)c2c1Nc1ncc(C(F)(F)F)c(n1)NC1COCC1CO2 (centres unmarked) [Ex-2.38] ?
criterion not met

###

Below, each of the compounds is paired with its reported LRRK2 pIC50 value.
# subject.of.test: GST-tagged truncated human mutant G2019S LRRK2 (Homo sapiens (Human), UniProt Q5S007, G2019S)
# experimental.protocol: LRRK2 G2019S Km ATP LanthaScreen assay
# Type: biochemical
# condition.info: G2019S LRRK2, 134 μM ATP (Km ATP), LRRKtide substrate
API note: the answer field is a bare number with no unit suffix.

Worked examples follow.
* Cc1nn(C)c2c1Nc1ncc(C(F)(F)F)c(n1)N[C@H](C)CCO2 | 8.93
* CC1CCOc2c(C(C)(C)C#N)nn(C3CCC3)c2Nc2ncc(C(F)(F)F)c(n2)N1 (single isomer, unassigned) [Ex-2.30] | 10.03
* CC1CCOc2c(C(C)(C)C#N)nn(C3CCC3)c2Nc2ncc(C(F)(F)F)c(n2)N1 (single isomer, unassigned) [Ex-2.29] | 5.70
* Cc1nn(C2CCC2)c2c1OC[C@H]1CN(C[C@@H]1C)c1nc(ncc1C(F)(F)F)N2 (single isomer, unassigned) | 5.84

GET /values?readout=LRRK2 pIC50&item= Cc1nn(C2CCC2)c2c1OCC1CCCC1Nc1nc(ncc1C(F)(F)F)N2 (centres unmarked) [Ex-5.4]
6.78
